Each recorded value in this set is attributed to patent US20130172248A1.

Molecular target: GPCR GPR40 (human) (Homo sapiens, UniProt O14842)
Sequence (O14842 whole entry): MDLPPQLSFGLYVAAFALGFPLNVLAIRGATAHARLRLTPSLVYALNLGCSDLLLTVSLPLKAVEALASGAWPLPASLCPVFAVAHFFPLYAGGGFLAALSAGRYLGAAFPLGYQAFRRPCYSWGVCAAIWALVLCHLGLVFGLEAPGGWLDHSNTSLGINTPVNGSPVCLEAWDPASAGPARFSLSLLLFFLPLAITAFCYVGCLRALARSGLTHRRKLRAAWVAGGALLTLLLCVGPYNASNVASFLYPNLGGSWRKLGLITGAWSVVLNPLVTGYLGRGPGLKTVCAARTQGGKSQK
Experiment: In vitro FLIPR assay with recombinant HEK293 cells which express the GPCR GPR40 (intracellular Ca2+)
Conditions: recombinant HEK293 cells expressing human GPR40; 100% = 10 μM linoleic acid reference agonist; read-out: hGPR40 EC50
Experimental: In Vitro FLIPR Assay with Recombinant Cells which Express the GPCR GPR40 Function-testing assays were performed by means of the FLIPR technique (“Fluorescence Imaging Plate Reader”, Molecular Devices Corp.). For this purpose, agonist-induced changes were determined in the intracellular concentration of Ca^2+ in recombinant HEK293 cells which expressed the GPCR GPR40 (human). For the studies, cells were sown into 96-well microtiter plates (60 000 cells/well) and left to grow overnight. […]
pEC50: −log10 of the molar value.
Use Y when the recorded pEC50 is no lower than 8; use N when it is lower.

compound	discrete_label
CC#C[C@@H](CC(=O)O)c1ccc(NC(=O)C(=O)Nc2cccc(C(C)(C)C)c2)cc1	Y
CC#C[C@@H](CC(=O)O)c1ccc(NC(=O)C(=O)Nc2cc(C(F)(F)F)ccc2C(F)(F)F)cc1	Y
CC#C[C@H](CC(=O)O)c1ccc(NC(=O)C(=O)Nc2cc(C(F)(F)F)ccc2C(F)(F)F)cc1 [compound 6, reference compound]	N
CC#C[C@@H](CC(=O)O)c1ccc(NC(=O)C(=O)Nc2cc(C(F)(F)F)ccc2C)cc1	Y
CC#C[C@H](CC(=O)O)c1ccc(NC(=O)C(=O)Nc2cc(C(F)(F)F)ccc2C)cc1 [compound 8, reference compound]	N

Moving on to another compound below.
Task: Could you verify whether the entry CC#C[C@H](CC(=O)O)c1ccc(NC(=O)C(=O)Nc2cc(C(F)(F)F)ccc2Cl)cc1 [compound 10, reference compound] shows pEC50 of no less than 8?
Output: N
